Where do the numbers come from? From PubChem BioAssay AID256.

System: CD2F1 mice, L1210 leukemia ip, survival T/C
assay.procedure: NCI In Vivo Anticancer Drug Screen. Data for tumor model L1210 Leukemia (intraperitoneal) in CD2F1 (CDF1) mice
condition.context: endpoint: mean survival time; dose: 400.0 mg/kg/injection; schedule: Q01DX009 (ip); vehicle: saline with Tween-80; higher = longer survival
Experimental: The antitumor activity of compounds was measured in mice bearing transplantable tumors. Survival or tumor size were measured and the results are expressed as the measurement made in the treated group (T) divided by the measurement made in the vehicle treated control group (C). The tumor model used in this assay is L1210 Leukemia (intraperitoneal) in CD2F1 (CDF1) mice
Inconclusive results and toxic doses are left out.
# T/C values compiled below
readout.name: T/C

molecule: O=[N+]([O-])c1ccc(C2N(Cc3ccc(Cl)cc3)CCN2Cc2ccc(Cl)cc2)cc1
result: 91 % of control

molecule: CC1C2CCC(C2)C1OC(=O)c1ccccc1C(=O)O (centres undefined) (tested in a mixture with another compound)
result: 94 % of control

molecule: O=C1NC(=O)C(c2ccc(Cl)cc2)N1 (centres undefined)
result: 104 % of control

molecule: COc1ccc(-c2cc3ccccc3c(=O)o2)cc1
result: 91 % of control

molecule: CN(C)c1ccc(/C=N/NC(=O)CNC(=O)c2ccccc2)cc1
result: 89 % of control

molecule: O=C(O)c1cccc(Cl)n1
result: 88 % of control

molecule: Cc1cc(N(CCCl)CCCl)ccc1C1N(Cc2ccc(N(C)C)cc2)CCCN1Cc1ccc(N(C)C)cc1
result: 108 % of control

molecule: CCN(CC)Cc1cc(Nc2ncnc3oc(C)c(C)c23)ccc1O
result: 100 % of control

molecule: COc1ccc(CNC(C#N)c2ccccc2)cc1OC (centres undefined)
result: 97 % of control

molecule: CCC1C(=O)NC(=O)NC1=O
result: 93 % of control

molecule: COc1cc(C2C3CN(C4CCCCC4)C(=O)C3NN2C(C)=O)ccc1OC(C)=O (centres undefined)
result: 95 % of control

molecule: O=C(O)c1ccc(NC(=S)NC(=O)c2cccc(Br)c2)cc1
result: 86 % of control

molecule: C/C=C(\C)C(C)O (centres undefined)
result: 102 % of control

molecule: CC(=O)Oc1ccc(N2C(=O)C=CC2=O)cc1 (tested in a mixture with another compound)
result: 91 % of control
